Reported activity coefficient is given for each of the following compounds.
# Assay method text: activity coefficient (dimensionless); of the first substance listed, at infinite dilution; xn = mol fraction of the nth substance listed
# Condition: 338.15 K; 100 kPa; Liquid; Chromatography; x1 = 0
Value type: activity coefficient

[[record]]
compound = "C=CCCCCCC [oct-1-ene] + CC(O)C(=O)[O-].CC[N+]1(C)CCCC1"
readout_value = 120

[[record]]
compound = "Cc1ccc(C)cc1 [1,4-dimethylbenzene] + CC(O)C(=O)[O-].CC[N+]1(C)CCCC1"
readout_value = 10.3

[[record]]
compound = "Cc1ccccc1C [1,2-dimethylbenzene] + CC(O)C(=O)[O-].CC[N+]1(C)CCCC1"
readout_value = 8.46

[[record]]
compound = "C#CCCCCC [1-heptyne] + CC(O)C(=O)[O-].CC[N+]1(C)CCCC1"
readout_value = 9.82

[[record]]
compound = "CC(C)OC(C)C [diisopropyl ether] + CC(O)C(=O)[O-].CC[N+]1(C)CCCC1"
readout_value = 50.1

[[record]]
compound = "CCCC(=O)OC [methyl butanoate] + CC(O)C(=O)[O-].CC[N+]1(C)CCCC1"
readout_value = 7.6


---

# Assay method text: activity coefficient (dimensionless); of the first substance listed, at infinite dilution; xn = mol fraction of the nth substance listed
# Condition: 308.15 K; 100 kPa; Liquid; Chromatography; x1 = 0
Listed next: entries and their corresponding activity coefficient.
Value type: activity coefficient

[[record]]
molecule = "CCOCC [diethyl ether] + CC(O)C(=O)[O-].CC[N+]1(C)CCCC1"
readout_value = 15.8

[[record]]
molecule = "CCOC(C)(C)C [2-ethoxy-2-methylpropane] + CC(O)C(=O)[O-].CC[N+]1(C)CCCC1"
readout_value = 46.2

[[record]]
molecule = "CCCCCCC [heptane] + CC(O)C(=O)[O-].CC[N+]1(C)CCCC1"
readout_value = 213

[[record]]
molecule = "CC1CCCCC1 [methylcyclohexane] + CC(O)C(=O)[O-].CC[N+]1(C)CCCC1"
readout_value = 87.4

[[record]]
molecule = "CCCCCCCC [octane] + CC(O)C(=O)[O-].CC[N+]1(C)CCCC1"
readout_value = 334


---

# Assay method text: activity coefficient (dimensionless); of the first substance listed, at infinite dilution; xn = mol fraction of the nth substance listed
# Condition: 328.15 K; 100 kPa; Liquid; Chromatography; x1 = 0
activity coefficient strictly less than 40 = condition met. Otherwise condition not met.

[[record]]
compound = "CCOC(C)(C)C [2-ethoxy-2-methylpropane] + CC(O)C(=O)[O-].CC[N+]1(C)CCCC1"
category_label = "condition not met"

[[record]]
compound = "C=CCCCCC [1-heptene] + CC(O)C(=O)[O-].CC[N+]1(C)CCCC1"
category_label = "condition not met"

[[record]]
compound = "CCC(C)CC [3-methylpentane] + CC(O)C(=O)[O-].CC[N+]1(C)CCCC1"
category_label = "condition not met"

[[record]]
compound = "CC(C)OC(C)C [diisopropyl ether] + CC(O)C(=O)[O-].CC[N+]1(C)CCCC1"
category_label = "condition not met"

[[record]]
compound = "C#CCCCCC [1-heptyne] + CC(O)C(=O)[O-].CC[N+]1(C)CCCC1"
category_label = "condition met"

[[record]]
compound = "C1CCOC1 [tetrahydrofuran] + CC(O)C(=O)[O-].CC[N+]1(C)CCCC1"
category_label = "condition met"


---

# Assay method text: activity coefficient (dimensionless); of the first substance listed, at infinite dilution; xn = mol fraction of the nth substance listed
# Condition: 368.15 K; 100 kPa; Liquid; Chromatography; x1 = 0
activity coefficient class ranges: lower (below 6), middle (6 to below 20), upper (20 or more)

[[record]]
molecule = "C1CCCCC1 [cyclohexane] + CC(O)C(=O)[O-].CC[N+]1(C)CCCC1"
category_label = "upper"

[[record]]
molecule = "CC(C)=O [acetone] + CC(O)C(=O)[O-].CC[N+]1(C)CCCC1"
category_label = "lower"

[[record]]
molecule = "CC(C)OC(C)C [diisopropyl ether] + CC(O)C(=O)[O-].CC[N+]1(C)CCCC1"
category_label = "upper"

[[record]]
molecule = "CCCCO [butan-1-ol] + CC(O)C(=O)[O-].CC[N+]1(C)CCCC1"
category_label = "lower"

[[record]]
molecule = "C=CCCCCCCCC [1-decene] + CC(O)C(=O)[O-].CC[N+]1(C)CCCC1"
category_label = "upper"

[[record]]
molecule = "COC(C)=O [methyl ethanoate] + CC(O)C(=O)[O-].CC[N+]1(C)CCCC1"
category_label = "lower"

[[record]]
molecule = "C1CCCCCC1 [cycloheptane] + CC(O)C(=O)[O-].CC[N+]1(C)CCCC1"
category_label = "upper"

[[record]]
molecule = "C#CCCCCC [1-heptyne] + CC(O)C(=O)[O-].CC[N+]1(C)CCCC1"
category_label = "middle"

[[record]]
molecule = "c1ccsc1 [thiophene] + CC(O)C(=O)[O-].CC[N+]1(C)CCCC1"
category_label = "lower"

[[record]]
molecule = "O [water] + CC(O)C(=O)[O-].CC[N+]1(C)CCCC1"
category_label = "lower"

[[record]]
molecule = "CCCCCCCCC [nonane] + CC(O)C(=O)[O-].CC[N+]1(C)CCCC1"
category_label = "upper"

[[record]]
molecule = "Cc1ccc(C)cc1 [1,4-dimethylbenzene] + CC(O)C(=O)[O-].CC[N+]1(C)CCCC1"
category_label = "middle"

[[record]]
molecule = "CCC(=O)CC [pentan-3-one] + CC(O)C(=O)[O-].CC[N+]1(C)CCCC1"
category_label = "lower"

[[record]]
molecule = "CCCC(=O)CC [3-hexanone] + CC(O)C(=O)[O-].CC[N+]1(C)CCCC1"
category_label = "middle"

[[record]]
molecule = "C1=CCCCC1 [cyclohexene] + CC(O)C(=O)[O-].CC[N+]1(C)CCCC1"
category_label = "middle"

[[record]]
molecule = "C=CCCCCC [1-heptene] + CC(O)C(=O)[O-].CC[N+]1(C)CCCC1"
category_label = "upper"

[[record]]
molecule = "CCCCC(C)=O [2-hexanone] + CC(O)C(=O)[O-].CC[N+]1(C)CCCC1"
category_label = "middle"

[[record]]
molecule = "C#CCCCC [1-hexyne] + CC(O)C(=O)[O-].CC[N+]1(C)CCCC1"
category_label = "middle"

[[record]]
molecule = "CCOC(C)=O [ethyl acetate] + CC(O)C(=O)[O-].CC[N+]1(C)CCCC1"
category_label = "lower"


---

# Assay method text: activity coefficient (dimensionless); of the first substance listed, at infinite dilution; xn = mol fraction of the nth substance listed
# Condition: 348.15 K; 100 kPa; Liquid; Chromatography; x1 = 0
Listed next: entries and their corresponding activity coefficient.
Value type: activity coefficient

[[record]]
compound = "CCc1ccccc1 [ethylbenzene] + CC(O)C(=O)[O-].CC[N+]1(C)CCCC1"
readout_value = 9.58

[[record]]
compound = "CCCC(=O)OC [methyl butanoate] + CC(O)C(=O)[O-].CC[N+]1(C)CCCC1"
readout_value = 7.74

[[record]]
compound = "CCCCCCCCC [nonane] + CC(O)C(=O)[O-].CC[N+]1(C)CCCC1"
readout_value = 358

[[record]]
compound = "Cc1ccccc1 [toluene] + CC(O)C(=O)[O-].CC[N+]1(C)CCCC1"
readout_value = 5.76

[[record]]
compound = "CCC[N+](=O)[O-] [1-nitropropane] + CC(O)C(=O)[O-].CC[N+]1(C)CCCC1"
readout_value = 1.92

[[record]]
compound = "CCOCC [diethyl ether] + CC(O)C(=O)[O-].CC[N+]1(C)CCCC1"
readout_value = 15

[[record]]
compound = "CCOC(C)=O [ethyl acetate] + CC(O)C(=O)[O-].CC[N+]1(C)CCCC1"
readout_value = 5.32

[[record]]
compound = "CCOC(C)(C)C [2-ethoxy-2-methylpropane] + CC(O)C(=O)[O-].CC[N+]1(C)CCCC1"
readout_value = 41.6

[[record]]
compound = "CCCC(=O)CC [3-hexanone] + CC(O)C(=O)[O-].CC[N+]1(C)CCCC1"
readout_value = 8.19

[[record]]
compound = "C1CCCCCC1 [cycloheptane] + CC(O)C(=O)[O-].CC[N+]1(C)CCCC1"
readout_value = 53.8

[[record]]
compound = "C=CCCCCCC [oct-1-ene] + CC(O)C(=O)[O-].CC[N+]1(C)CCCC1"
readout_value = 114

[[record]]
compound = "C#CCCCCC [1-heptyne] + CC(O)C(=O)[O-].CC[N+]1(C)CCCC1"
readout_value = 10.3

[[record]]
compound = "c1ccsc1 [thiophene] + CC(O)C(=O)[O-].CC[N+]1(C)CCCC1"
readout_value = 1.56

[[record]]
compound = "CC#N [acetonitrile] + CC(O)C(=O)[O-].CC[N+]1(C)CCCC1"
readout_value = 0.88

[[record]]
compound = "C1CCCC1 [cyclopentane] + CC(O)C(=O)[O-].CC[N+]1(C)CCCC1"
readout_value = 25.7

[[record]]
compound = "C1COCCO1 [1,4-dioxane] + CC(O)C(=O)[O-].CC[N+]1(C)CCCC1"
readout_value = 2.48

[[record]]
compound = "C#CCCCC [1-hexyne] + CC(O)C(=O)[O-].CC[N+]1(C)CCCC1"
readout_value = 6.54

[[record]]
compound = "CCCOCCC [dipropyl ether] + CC(O)C(=O)[O-].CC[N+]1(C)CCCC1"
readout_value = 44.8

[[record]]
compound = "CC(C)OC(C)C [diisopropyl ether] + CC(O)C(=O)[O-].CC[N+]1(C)CCCC1"
readout_value = 48.6

